- System Tested: Virion infectivity factor (Human immunodeficiency virus type 1 group M subtype B (isolate BH10)) + Virion infectivity factor (Human immunodeficiency virus type 1 group M subtype B (isolate BRU/LAI)) + Virion infectivity factor (Human immunodeficiency virus type 1 group M subtype B (isolate PCV12)) + Virion infectivity factor (Human immunodeficiency virus type 1 group M subtype B (isolate HXB2)) + DNA dC->dU-editing enzyme APOBEC-3G (Homo sapiens) (UniProt P69720+P69721+P69722+P69723+Q9HC16)
- Assay Protocol: inhibitors of Vif binding to APOBEC3G peptide, primary screen, biochemical, TR-FRET, GST-Vif 1-94, biotin-A3G peptide, dose response retest (AID 1117319);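 further: Vif residues 1-94 fused to GST binding biotinylated APOBEC3G peptide 110-148; 0% = full assay without inhibitor and 100% = GST in place of GST-Vif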
- Assay Conditions: hits give high values
In all, about 260,000 compounds went through this assay and about 1,500 (0.58%) were called active. Roughly 5% stayed inconclusive and do not appear here. Not all results are given here. Potency and affinity values are given separately.
For each entry below, report its inhibition value.
API: value field is a number in %; no unit string.

Problem: Which measured inhibition value corresponds to N#Cc1ccc(N2CCCNCC2)nc1 ?
Solution: -3.01

Problem: Which measured inhibition value corresponds to COC(=O)c1ccccc1N=Nc1c(C)n[nH]c1C ?
Solution: -7.02

Problem: Which measured inhibition value corresponds to O=C1C[C@@H](c2ccc(O)cc2)Oc2cc(O)cc(O)c21 ?
Solution: 2.93

Problem: Which measured inhibition value corresponds to O=C(COc1ccc(-c2nnco2)cc1)Nc1ccc(F)c(Cl)c1 ?
Solution: -11.6

Problem: Which measured inhibition value corresponds to CCC(C(=O)OCC(=O)Nc1ccc(C(N)=O)cc1)c1ccccc1 (stereo unspecified) ?
Solution: -11.4

Problem: Which measured inhibition value corresponds to O=C1CCC/C(=N\NC(=O)c2ccc(CSc3cccc4cccnc34)cc2)C1 ?
Solution: 5.86

Problem: Which measured inhibition value corresponds to COc1cc(NC(=O)c2cnn3c(C)cc(C)nc23)c(OC)cc1Cl ?
Solution: 0.24

Problem: Which measured inhibition value corresponds to CCCCC(=O)N/N=C/c1sccc1C ?
Solution: -0.53

Problem: Which measured inhibition value corresponds to Cc1ccc(NC(=O)CNc2cccc(C)c2C)c(C)c1 ?
Solution: 21.8

Problem: Which measured inhibition value corresponds to COc1cccc(NC(=O)CN(C)C(=O)c2ccc(COc3ccccc3)o2)c1 ?
Solution: 10.4

Problem: Which measured inhibition value corresponds to CC(=O)Nc1cc(C)nn1-c1nc2ccccc2s1 ?
Solution: -19.4

Origin of values: PubChem BioAssay AID1117319
